# credit: patent US20250059205A1

Molecular target: GDP-bound KRAS protein (aa 1-169), containing both G12D and C118A amino acid substitutions (Homo sapiens, UniProt P01116, C118A/G12D)
Sequence (P01116 1-169 isoform P01116-2 G12D/C118A): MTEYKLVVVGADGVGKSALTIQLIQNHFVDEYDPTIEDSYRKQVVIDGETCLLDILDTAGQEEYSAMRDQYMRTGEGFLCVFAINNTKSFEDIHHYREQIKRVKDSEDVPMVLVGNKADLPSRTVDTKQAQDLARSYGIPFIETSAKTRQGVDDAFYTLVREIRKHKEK
Experiment: KRAS G12D Coupled Nucleotide Exchange Assay
Format: biochemical
Details: 2 h compound pre-incubation
Answer each item with its documented Avg 2 h Coupled Exchange IC50.
State the answer as a number, implicitly in nM.

Req: # get_value(readout='Avg 2 h Coupled Exchange IC50', item= Oc1cc(Cl)c(C2CC2)c(-c2c(F)cc3c(N4C[C@H]5CC[C@@H](C4)N5)nc(OC[C@@]45CCCN4C[C@H](F)C5)nc3c2F)c1 [Example 144] )
Resp: 3

Req: # get_value(readout='Avg 2 h Coupled Exchange IC50', item= C#Cc1c(F)ccc2cc(O)cc(-c3c(F)cc4c(N5C[C@@H]6CC[C@H]5CN6)nc(OC[C@@]56CCCN5C[C@H](F)C6)nc4c3F)c12 [Example 188] )
Resp: 2

Req: # get_value(readout='Avg 2 h Coupled Exchange IC50', item= CCc1c(F)ccc2cc(O)cc(-c3ccc4c(N5C[C@H]6CC[C@@H](C5)N6)cc(OC[C@@]56CCCN5C[C@H](F)C6)nc4c3)c12 [Example 210] )
Resp: 69

Req: # get_value(readout='Avg 2 h Coupled Exchange IC50', item= Oc1cc(-c2ccc3c(N4C[C@@H]5CC[C@H]4CN5)nc(OC[C@@]45CCCN4C[C@H](F)C5)nc3c2)c2c(F)c(F)ccc2c1 [Example 113] )
Resp: 2

Req: # get_value(readout='Avg 2 h Coupled Exchange IC50', item= CCc1c(F)ccc2cc(O)cc(-c3ccc4c(N5C[C@@H]6CC[C@](F)(C5)N6)nc(OC[C@@]56CCCN5C[C@H](F)C6)nc4c3F)c12 [Example 178] )
Resp: 5

Req: # get_value(readout='Avg 2 h Coupled Exchange IC50', item= Cc1cc(N)nc(-c2ccc3c(N4C[C@H]5CC[C@@H](C4)N5)nc(OC[C@@]45CCCN4C[C@H](F)C5)nc3c2F)c1C(F)(F)F [Example 229] )
Resp: 4

Req: # get_value(readout='Avg 2 h Coupled Exchange IC50', item= Cn1ncc2cccc(-c3ccc4c(N5C[C@H]6CC[C@@H](C5)N6)nc(OC[C@@]56CCCN5C[C@H](F)C6)nc4c3)c21 [Example 66] )
Resp: 300

Req: # get_value(readout='Avg 2 h Coupled Exchange IC50', item= CCc1c(F)ccc2cc(O)cc(-c3c(O)cc4c(N5[C@@H]6CC[C@H]5CNC6)nc(OC[C@@]56CCCN5C[C@H](F)C6)nc4c3F)c12 [Example 200] )
Resp: 4

Req: # get_value(readout='Avg 2 h Coupled Exchange IC50', item= Oc1cc(-c2c(F)cc3c(N4C[C@H]5CC[C@@H]4CN5)nc(OC[C@@]45CCCN4C[C@H](F)C5)nc3c2F)c2ccccc2c1Cl [Example 206] )
Resp: 42

Req: # get_value(readout='Avg 2 h Coupled Exchange IC50', item= N#Cc1cccc2cc(O)cc(-c3ccc4c(N5C[C@H]6CC[C@@H](C5)N6)nc(OC[C@@]56CCCN5C[C@H](F)C6)nc4c3F)c12 [Example 205] )
Resp: 7

Req: # get_value(readout='Avg 2 h Coupled Exchange IC50', item= CCc1c(F)ccc2cc(O)cc(-c3c(F)cc4c(N5CCC6CCC(C5)N6)nc(OC[C@@]56CCCN5C[C@H](F)C6)nc4c3F)c12 (stereo partly drawn) [Example 153] )
Resp: 3

Req: # get_value(readout='Avg 2 h Coupled Exchange IC50', item= CCc1c(F)ccc2cccc(-c3ccc4c(N5C[C@H]6CC[C@@H](C5)N6)nc(OC[C@@]56CCCN5C[C@H](F)C6)nc4c3C)c12 [Example 58] )
Resp: 5

====

Target: His-tagged KRAS G12D protein (Homo sapiens, UniProt P01116, G12D)
Sequence (P01116 1-188 isoform P01116-2 G12D): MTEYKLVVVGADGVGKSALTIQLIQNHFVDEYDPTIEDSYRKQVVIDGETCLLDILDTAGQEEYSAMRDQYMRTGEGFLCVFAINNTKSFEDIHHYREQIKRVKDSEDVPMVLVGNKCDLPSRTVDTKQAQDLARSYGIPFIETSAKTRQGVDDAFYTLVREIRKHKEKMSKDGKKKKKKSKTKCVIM
Test: KRAS G12D TR-FRET Assay
propertyMeasured: log10 of IC50 (log10 of the value in nM)
Would you kindly interpret these values as log10 of IC50 expressed in nM?

Req: # get_value(readout='log10 of IC50', item= CCc1c(F)ccc2cc(O)cc(-c3c(F)cc4c(N5[C@@H]6CCC[C@H]5CNC6)nc(OC[C@@]56CCCN5C[C@H](F)C6)nc4c3F)c12 [Example 172] )
Resp: 1.93

Req: # get_value(readout='log10 of IC50', item= Oc1cc(-c2c(F)cc3c(N4[C@@H]5CC[C@H]4CNC5)nc(OC[C@@]45CCCN4C[C@H](F)C5)nc3c2F)c2ncccc2c1 [Example 27] )
Resp: 1.67

Req: # get_value(readout='log10 of IC50', item= CCc1c(F)ccc2cc(O)cc(-c3ccc4c(N5C[C@H]6CC[C@@](F)(C5)N6)nc(OC[C@@]56CCCN5C[C@H](F)C6)nc4c3F)c12 [Example 179] )
Resp: 0.30

Req: # get_value(readout='log10 of IC50', item= CCc1cccc2cc(O)cc(-c3ccc4c(N5CCC6CCC(C5)N6)nc(OC[C@@]56CCCN5C[C@H](F)C6)nc4c3F)c12 (stereo partly drawn) [Example 154] )
Resp: 1.11

Req: # get_value(readout='log10 of IC50', item= CCc1c(F)ccc2cc(O)cc(-c3ccc4c(N5[C@@H]6CC[C@H]5CNC6)nc(OC[C@@]56CCCN5C[C@H](F)C6)nc4c3F)c12 [Example 146] )
Resp: 0.00

Req: # get_value(readout='log10 of IC50', item= CCc1cccc2cc(O)cc(-c3ccc4c(N5C[C@H]6CC[C@@H](C5)N6)nc(OC[C@@]56CCCN5C[C@H](F)C6)nc4c3C)c12 [Example 168] )
Resp: 0.60

====

Target: GDP-bound KRAS protein (aa 1-169), containing both G12D and C118A amino acid substitutions (Homo sapiens, UniProt P01116, C118A/G12D)
Assay: KRAS G12D Coupled Nucleotide Exchange Assay
Assay type: biochemical
Conditions: 2 h compound pre-incubation
Answer each item with its documented Avg 2 h Coupled Exchange IC50.
State the answer as a number, implicitly in nM.

Req: # get_value(readout='Avg 2 h Coupled Exchange IC50', item= `Oc1cc(-c2c(F)cc3c(N4[C@@H]5CC[C@H]4CNC5)nc(OC[C@@]45CCCN4C[C@H](F)C5)nc3c2O)c2ccccc2c1` )
Resp: 55

Req: # get_value(readout='Avg 2 h Coupled Exchange IC50', item= `CN1C[C@H](F)C[C@H]1COc1nc(N2[C@@H]3CC[C@H]2CNC3)c2cc(F)c(-c3cc(O)cc4ccccc34)c(O)c2n1` )
Resp: 517

Req: # get_value(readout='Avg 2 h Coupled Exchange IC50', item= `C#Cc1cccc2cccc(-c3c(F)cc4c(N5[C@@H]6CC[C@H]5CNC6)nc(OC[C@@]56CCCN5C[C@H](F)C6)nc4c3F)c12` )
Resp: 6

Req: # get_value(readout='Avg 2 h Coupled Exchange IC50', item= `CCc1c(F)ccc2cc(O)cc(-c3c(F)cc4c(N5C[C@H]6CC[C@@H](C5)N6)nc(/C=C/C(C)(C)O)nc4c3F)c12` )
Resp: 6

Req: # get_value(readout='Avg 2 h Coupled Exchange IC50', item= `Oc1cc(-c2c(F)cc3c(N4C[C@H]5CC[C@@H](C4)N5)nc(OC[C@@]45CCCN4C[C@H](F)C5)nc3c2F)c2c(F)c(F)ccc2c1` )
Resp: 4

Req: # get_value(readout='Avg 2 h Coupled Exchange IC50', item= CCc1c(F)ccc2cc(O)cc(-c3c(F)cc4c(N5C6CCC5C(=O)NC6)nc(OC[C@@]56CCCN5C[C@H](F)C6)nc4c3F)c12 (single isomer, unassigned) [Example 175] )
Resp: 4

====

Target: His-tagged KRAS G12D protein (Homo sapiens, UniProt P01116, G12D)
Test: KRAS G12D TR-FRET Assay
Assay type: binding
propertyMeasured: pIC50
Lab note: report pIC50 as minus log10 of the concentration in molar units, number only.

Req: # get_value(readout='pIC50', item= `CCc1c(F)ccc2cc(O)cc(-c3c(F)cc4c(N5C[C@H]6CC[C@@H](C5)N6)nc(OCc5nccn5C)nc4c3F)c12` )
Resp: 7.96

Req: # get_value(readout='pIC50', item= `Oc1cc(-c2c(F)cc3c(N4[C@@H]5CC[C@H]4CNC5)nc(OC[C@@]45CCCN4C[C@H](F)C5)nc3c2O)c2ccccc2c1` )
Resp: 6.84

Req: # get_value(readout='pIC50', item= `Oc1cc(-c2ccc3c(N4[C@@H]5CC[C@H]4CNC5)nc(OC[C@@]45CCCN4C[C@H](F)C5)nc3c2F)c2cccnc2c1` )
Resp: 6.79

Req: # get_value(readout='pIC50', item= `Oc1cc(-c2c(F)cc3c(N4[C@@H]5CNC[C@H]4COC5)nc(OC[C@@]45CCCN4C[C@H](F)C5)nc3c2F)c2ccccc2c1` )
Resp: 8.05

Req: # get_value(readout='pIC50', item= `CN1C[C@H](F)C[C@H]1COc1nc(N2[C@@H]3CC[C@H]2CNC3)c2cc(F)c(-c3cc(O)cc4ccccc34)c(F)c2n1` )
Resp: 7.59

Req: # get_value(readout='pIC50', item= `Cc1cc2[nH]ncc2c(-c2c(F)cc3c(N4C[C@H]5CC[C@@H](C4)N5)nc(OC[C@@]45CCCN4C[C@H](F)C5)nc3c2F)c1Cl` )
Resp: 8.30

Req: # get_value(readout='pIC50', item= `Fc1cc2c(N3C[C@H]4CC[C@@H](C3)N4)nc(OC[C@@]34CCCN3C[C@H](F)C4)nc2c(F)c1-c1cccc2ccc(F)c(F)c12` )
Resp: 8.30

Req: # get_value(readout='pIC50', item= `Cc1cccc2cccc(-c3c(F)cc4c(N5[C@@H]6CC[C@H]5CNC6)nc(OC[C@@]56CCCN5C[C@H](F)C6)nc4c3F)c12` )
Resp: 7.36

Req: # get_value(readout='pIC50', item= `Cc1cc(N)nc(-c2ccc3c(N4C[C@H]5CC[C@@H](C4)N5)nc(OC[C@@]45CCCN4C[C@H](F)C5)nc3c2F)c1C(F)(F)F` )
Resp: 8.15

Req: # get_value(readout='pIC50', item= `Cc1ccc2cnn(C)c2c1-c1c(F)cc2c(N3C[C@H]4CC[C@@H](C3)N4)nc(OC[C@@]34CCCN3C[C@H](F)C4)nc2c1F` )
Resp: 8.15

Req: # get_value(readout='pIC50', item= `Cc1ccc2[nH]nc(C)c2c1-c1c(Cl)cc2c(N3C[C@H]4CC[C@@H](C3)N4)nc(OC[C@@]34CCCN3C[C@H](F)C4)nc2c1F` )
Resp: 8.15

Req: # get_value(readout='pIC50', item= `Fc1c(-c2cc(Cl)cc3ccccc23)c(Cl)cc2c(N3C[C@H]4CC[C@@H](C3)N4)nc(OC[C@@]34CCCN3C[C@H](F)C4)nc12` )
Resp: 6.65

Req: # get_value(readout='pIC50', item= `CCc1cccc2cc(O)cc(-c3c(F)cc4c(N5C[C@@H]6CC[C@H]5CN6)nc(OC[C@@]56CCCN5C[C@H](F)C6)nc4c3F)c12` )
Resp: 8.40

Req: # get_value(readout='pIC50', item= `Oc1cc(-c2c(Cl)cc3c(N4C[C@H]5CC[C@@H](C4)N5)nc(OC[C@@]45CCCN4C[C@H](F)C5)nc3c2F)c2c(F)c(F)ccc2c1` )
Resp: 8.52

Req: # get_value(readout='pIC50', item= `CCc1c(F)ccc2cc(O)cc(-c3c(O)cc4c(N5[C@@H]6CC[C@H]5CNC6)nc(OC[C@@]56CCCN5C[C@H](F)C6)nc4c3F)c12` )
Resp: 8.40

Req: # get_value(readout='pIC50', item= `CCc1c(F)ccc2cc(O)cc(-c3c(O)cc4c(N5C[C@H]6CC[C@@H](C5)N6)nc(OC[C@@]56CCCN5C[C@H](F)C6)nc4c3F)c12` )
Resp: 8.52

Req: # get_value(readout='pIC50', item= Oc1cc(-c2c(F)cc3c(N4C[C@H]5C[C@@H](C4)N5)nc(OCC45CCCN4CC(F)(F)C5)nc3c2F)c2ccccc2c1 (stereo partly drawn) )
Resp: 7.06

Req: # get_value(readout='pIC50', item= `Oc1cc(-c2cc3nc(OC[C@@]45CCCN4C[C@H](F)C5)nc(N4C[C@H]5CC[C@@H](C4)N5)c3cc2F)c2ccccc2c1` )
Resp: 8.52

Req: # get_value(readout='pIC50', item= `CCc1cccc2cc(O)cc(-c3cc4nc(OC[C@@]56CCCN5C[C@H](F)C6)nc(N5C[C@H]6CC[C@@H](C5)N6)c4cc3F)c12` )
Resp: 8.22

Req: # get_value(readout='pIC50', item= `CCc1c(F)ccc2cc(O)cc(-c3c(F)cc4c(N5C[C@H]6CC[C@@H](C5)N6)nc(OCC(C)(C)O)nc4c3F)c12` )
Resp: 8.15

Req: # get_value(readout='pIC50', item= `Oc1ccc(-c2c(F)cc3c(N4C[C@H]5CC[C@@H](C4)N5)nc(OC[C@@]45CCCN4C[C@H](F)C5)nc3c2F)c2ccccc12` )
Resp: 8.30

Req: # get_value(readout='pIC50', item= `CCc1c(F)ccc2cc(O)cc(-c3c(F)cc4c(N5C[C@H]6CC[C@@H](C5)N6)nc(OC[C@@]56CCCN5C[C@H](F)C6)nc4c3F)c12` )
Resp: 8.40

Req: # get_value(readout='pIC50', item= `CCc1c(F)ccc2cc(O)cc(-c3ccc4c(N5C[C@@H]6CC[C@H]5CN6)nc(OC[C@@]56CCCN5C[C@H](F)C6)nc4c3C)c12` )
Resp: 7.62

Req: # get_value(readout='pIC50', item= `Oc1ccc(Cl)c(-c2ccc3c(N4C[C@H]5CC[C@@H](C4)N5)nc(OC[C@@]45CCCN4C[C@H](F)C5)nc3c2)c1F` )
Resp: 6.32
